system: Ly-BP RUNX1 p.R204Q; assay: drug sensitivity score (DSS) (DSS score); higher = more sensitive (stronger growth inhibition); extreme values may be limits of the assay
value_type: drug sensitivity score
// response body must contain only the number

In the examples that follow, each entry is paired with its recorded drug sensitivity score.
compound | system_name | drug sensitivity score
COc1c(C)cnc(Cn2cnc3c(Cl)nc(N)nc32)c1C [BIIB021] | Ly-BP RUNX1 p.R204Q | 15.6
Cn1cnc2c(F)c(Nc3ccc(Br)cc3Cl)c(C(=O)NOCCO)cc21 [Selumetinib] | Ly-BP RUNX1 p.R204Q | 12.3
Nc1nc(F)nc2c1ncn2[C@@H]1O[C@H](CO)[C@@H](O)[C@@H]1O [Fludarabine] | Ly-BP RUNX1 p.R204Q | 18

**Q:** # lookup: drug sensitivity score of O=NN(CCCl)C(=O)NCCCl [Carmustine]
**A:** 0

**Q:** What do you get for CNC(=O)c1cc(Oc2ccc(NC(=O)Nc3ccc(Cl)c(C(F)(F)F)c3)cc2)ccn1 [Sorafenib] ?
**A:** 0

* * *

test system: Mye-BP RUNX1 p.R162K; experiment: drug sensitivity score (DSS) (DSS score); higher = more sensitive (stronger growth inhibition); extreme values may be limits of the assay
value_type: drug sensitivity score
// response body must contain only the number

In the examples that follow, each entry is paired with its recorded drug sensitivity score.
compound | drug sensitivity score
Oc1nc(-c2ccc(C(F)(F)F)cc2)nc2c1CSCC2 | 0
COc1cc2c(Oc3ccc(NC(=O)C4(C(=O)Nc5ccc(F)cc5)CC4)cc3F)ccnc2cc1OCCCN1CCOCC1 | 13.6
NC1(c2ccc(-c3nc4ccn5c(=O)[nH]nc5c4cc3-c3ccccc3)cc2)CCC1 | 4.19

**Q:** # lookup: drug sensitivity score of "COc1ccc(-c2ccc3c(N4CCOC[C@@H]4C)nc(N4CCOC[C@@H]4C)nc3n2)cc1CO"
**A:** 24.7

**Q:** What do you get for "O=C(CCBr)N1CCN(C(=O)CCBr)CC1" ?
**A:** 0

**Q:** What do you get for CCC1(c2ccc(N)cc2)CCC(=O)NC1=O (centres undefined) [Aminoglutethimide] ?
**A:** 0

**Q:** What do you get for "COc1cccc2cc(-c3nc([C@H]4CC[C@H](C(=O)O)CC4)n4ncnc(N)c34)[nH]c12" ?
**A:** 11.8

**Q:** What do you get for "COc1cc2c(N3CCN(C(=O)Nc4ccc(OC(C)C)cc4)CC3)ncnc2cc1OCCCN1CCCCC1" ?
**A:** 0.0484

**Q:** What do you get for "Clc1ccc(Nc2nnc(Cc3ccncc3)c3ccccc23)cc1" ?
**A:** 0

* * *

tested on: Mye-BP RUNX1 p.R107C; experiment: drug sensitivity score (DSS) (DSS score); higher = more sensitive (stronger growth inhibition); extreme values may be limits of the assay
value_type: drug sensitivity score
// response body must contain only the number

chemical_smiles | result_number
CC(=O)[C@]1(O)Cc2c(O)c3c(c(O)c2[C@@H](O[C@H]2C[C@H](N)[C@H](O)[C@H](C)O2)C1)C(=O)c1ccccc1C3=O | 28.2
CC(=O)Nc1ccc(C(=O)Nc2ccccc2N)cc1 | 1.7
CO[C@H]1/C=C\C=C(/C)C(=O)NC2=CC(=O)C(NCCN(C)C)=C(C[C@@H](C)C[C@H](OC)[C@H](O)[C@@H](C)/C=C(\C)[C@@H]1OC(N)=O)C2=O | 15.7
C#Cc1cccc(Nc2ncnc3cc(OC)c(OCCCCCCC(=O)NO)cc23)c1 | 19
CCCS(=O)(=O)Nc1ccc(F)c(C(=O)c2c[nH]c3ncc(-c4ccc(Cl)cc4)cc23)c1F | 0
CC1(C)CNc2cc(NC(=O)c3cccnc3NCc3ccncc3)ccc21 | 2.5
C=C1C[C@@H]2[C@H](CC[C@]3(C)C(=O)CC[C@@H]23)[C@@]2(C)C=CC(=O)C=C12 | 0
Cn1cnc2c(F)c(Nc3ccc(Br)cc3Cl)c(C(=O)NOCCO)cc21 | 5.8
OC[C@H]1O[C@@H](n2cnc3c2N=CNC[C@H]3O)C[C@@H]1O | 0

**Q:** # lookup: drug sensitivity score of "CN1CCN(c2nc(C3=C(c4c[nH]c5ccccc45)C(=O)NC3=O)c3ccccc3n2)CC1"
**A:** 0
